# assay: Elimination of six pharmaceuticals by Fe^VI—S2O3^2− in lake water (Lake Bryan)
# Format: physicochemical
# measurement.conditions: mixture 1.0 μM each, [S2O3^2−]:[Fe^VI] 0.125, Fe^VI 150.0 μM, pH 8.0, 30 seconds
readout.label: removal by Fe^VI—S2O3^2− in lake water

// worked examples, removal by Fe^VI—S2O3^2− in lake water included
Find the recorded removal by Fe^VI—S2O3^2− in lake water belonging to CCN1CCN(c2cc3c(cc2F)c(=O)c(C(=O)O)cn3C2CC2)CC1 and report it.
about 50%

Entry under review: CC(C)NCC(O)COc1cccc2ccccc12 (stereo not drawn) . Reported removal by Fe^VI—S2O3^2− in lake water?
about 80%

Entry under review: NC(=O)N1c2ccccc2C=Cc2ccccc21 [CMZ, Carbamazepine] . Reported removal by Fe^VI—S2O3^2− in lake water?
about 50%

Give its removal by Fe^VI—S2O3^2− in lake water value. Item: COc1cc(Cc2cnc(N)nc2N)cc(OC)c1OC
about 80%

Record request: removal by Fe^VI—S2O3^2− in lake water value, item O=C(O)Cc1ccccc1Nc1c(Cl)cccc1Cl
about 80%

Further cases:
Requested read-out: removal by Fe^VI—S2O3^2− in lake water. Entry: COc1cc(NS(=O)(=O)c2ccc(N)cc2)nc(OC)n1
about 80%

// provenance: patent US12329160B2
